B1: OAS1 (parent)
chain: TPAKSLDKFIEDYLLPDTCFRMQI

- Variants of: B1
- TEST_DETAILS: protein stability index of a GFP-peptide fusion (GPS, HEK-293T) (PSI 1-6); higher = more stable;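 note: lentivirally expressed fusions sorted by FACS into six bins by GFP to DsRed ratio, PSI derived from sequencing read proportions per bin multiplied by bin number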
- COND: c terminus: a fixed tail appended
Reported protein stability index is given for each of the following variants.

# VAR, protein stability index
rows = [
    ("S5K", 2.14),
    ("D12N", 2.91),
    ("Q23F", 2.13),
    ("A3D", 1.54),
    ("C19P", 2.68),
    ("C19T", 2.24),
    ("E11P", 3.89),
    ("A3V", 3.63),
    ("D12A", 3.14),
    ("P2L", 2.82),
    ("D7N", 2.1),
]
